Origin of values: PubChem BioAssay

Reported z-score values follow for various molecules
# protocol-notes: basal S. cerevisiae growth modulation, no modifier, primary screen, OD600, strain BY4716, 24 h, basal condition (AID 1173)
# condition-summary: OD600, 24 h, higher = more signal, called active from +8 up or from −8 down
Lab note: jot the number down without any unit.

1) [N-]=[N+]=Nc1ccccc1C[C@]1(C(=O)N2CCOCC2)N=C(c2ccc(OCCCO)cc2)O[C@H]1c1ccccc1
-0.576
2) Cc1ccc(S[C@]2(C(=O)O)CC(=O)N(Cc3cc(C(F)(F)F)cc(C(F)(F)F)c3)[C@@H]2c2ccc(CO)cc2)cc1
-0.54
3) CC(=O)NCCCC[C@@H]1NC(=O)[C@@H]2C[C@H](C(=O)NCCCC[N+](C)(C)C)[C@H](c3ccc(O)cc3)N2C1=O
-0.0108
4) C=C(/C(=C/C[C@H](OC(C)=O)c1ccccc1OCCO)c1cc(C(=O)OC)ccc1OC)C(C)C
-2.2
5) COc1ccc([Si](C)(C)[C@@H]2[C@@H](CC(=O)N(CCO)Cc3ccccc3)O[C@]3(C(=O)N(Cc4cccc(N5C(=O)c6cccc7cccc5c67)c4)c4ccccc43)[C@H]2C)cc1
-0.304
6) COC(=O)[C@@]1(Cc2ccc(F)cc2)[C@H]2c3cc(C(=O)N(C)C)n(CCc4ccc(O)c(OC)c4)c3C[C@H]2CN1C(=O)c1ccccc1
0.358
7) NC(=O)N1C(=O)C2C(C1=O)C1C=C(CCCO)C2C(c2cccs2)N1Cc1cccc(OC(F)(F)F)c1 (centres undefined)
-3.57
8) CCCC[C@@H]1C[C@H]1[C@@H](NC(=O)c1ccccc1)c1ccc(C(F)(F)F)cc1
0.628
9) COc1cc2c(cc1O)C(C)N(Cc1ccc([N+](=O)[O-])o1)CC2 (centres undefined)
-0.942
10) Cc1ccc(S[C@]2(C(=O)O)CC(=O)N(C3Cc4ccccc4C3)[C@@H]2c2ccc(CO)cc2)cc1
-0.528

Q) Using the record for C=CCC(OC(C)=O)[C@@H]1[C@@H](N(Cc2cccc3ccccc23)C(=O)Cc2ccc(OC)cc2)c2cc(OCCCO)ccc2N1C(=O)c1ccc2ccccc2n1 (some centres undefined) , report its z-score.
A) 0.0243

Q) Next record, please: `[N-]=[N+]=NCc1ccccc1C[C@@]1(C(=O)NCc2ccccc2)N=C(c2ccc(OCCCO)cc2)O[C@@H]1c1ccccc1N=[N+]=[N-]`
A) 0.85

---

# protocol-notes: E. coli DRC41 culture turbidity changes, primary screen, E. coli filamentation inducer project, strain DRC41, OD650, 48 h (AID 1152);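 also: E. coli MC1000 strain DRC41 lacking acrAB efflux pump and sulA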
# condition-summary: E. coli DRC41 (acrAB sulA), higher = more signal, called active from +8 up or from −8 down
Quick reference for z-score among some molecules
Keep it simple and answer with nothing but the number.

Example results:
1. CCOC(=O)C1=C[C@@H](c2ccccc2)N(S(=O)(=O)c2ccc(C)cc2)[C@H]1c1ccccc1Cl
-1.18
2. C[C@]1(C(=O)NC2CC2)c2ccccc2C(=O)N(Cc2ccccc2)[C@H]1c1ccc(CO)cc1
2.07
3. COC(=O)[C@@]1(Cc2ccc(F)cc2)[C@H]2c3cc(C(=O)N4CCCC4)n(CCc4ccc(O)c(O)c4)c3C[C@H]2CN1C(=O)c1ccccc1
-1.04
4. COC(=O)c1nc2oc1CC[C@@H](CO)NC(=O)N(C)Cc1cnnn1C[C@H](Cc1ccccc1)NC2=O
2.17
5. COC(=O)[C@@]1(Cc2ccc(OC)cc2)[C@@H]2C(=CC(=O)[C@H]2CC(=O)C(=O)N(C)C)CN1C(=O)c1ccccc1
-2.06

Note: attention shifts to another entry.
Q) What does the record list as z-score for `COc1ccc([Si](C)(C)[C@@H]2[C@@H](CCO)O[C@]3(C(=O)N(Cc4ccc(N5CCCCC5=O)cc4)c4ccccc43)[C@H]2C)cc1` ?
A) 0.968

---

Parameter z-score: see the listing below.
# protocol-notes: HepG2 cell viability effects, profiling panel, calcein-AM fluorescence, 48 h, basal (AID 1164); also: test concentration not given here
# condition-summary: higher = more signal
Form field (numeric): enter value without unit.

Worked cases, answers included:
1) O=C(N1CCCCC1)[C@@]1(CCS(=O)(=O)c2ccccc2)COC(c2ccc(OCCCO)cc2)=N1
0.299
2) COCCCNC(=O)[C@]1(CCS(=O)(=O)c2ccccc2)N=C(c2ccc(OCCCO)cc2)O[C@@H]1c1ccccc1CN=[N+]=[N-]
1.15
3) C=C(C)C1CCC(C(O)C2C=CC3C(=O)N(C)C(=O)C3N2N2CCCCC2)CC1 (centres undefined)
-0.774
4) COC(=O)CCCCCCC(=O)Nc1ccc(NC(=O)CCCC[P+](c2ccccc2)(c2ccccc2)c2ccccc2)cc1
0.67
5) COCCOC(=O)N1C(=O)[C@@]2(c3cc(C#Cc4ccc(OC)cc4)ccc31)[C@H](C(=O)Nc1nc3ccccc3s1)[C@H]1C(=O)O[C@H](c3ccccc3)[C@H](c3ccccc3)N1[C@@H]2c1ccc(OCCO)cc1
-1.07

Q) Field request: z-score | item: `C#CCN([C@@H](Cc1ccc(O)cc1)C(=O)OC)[C@@H](/C=C/C1CC1)[C@H](O)Cc1ccccc1`
A) -3.12

Q) `CC(C)[Si](C#C[Si](C(C)C)(C(C)C)C(C)C)(O[C@H](C)c1cn([C@H](CO)Cc2ccccc2)nn1)C(C)C` , same question.
A) 0.341

Q) Consider next the compound `CC(C)(C)OC(=O)CC[C@@]1(C(=O)NCc2ccccc2)N=C(c2ccc(OCCCO)cc2)O[C@@H]1c1ccccc1N=[N+]=[N-]` in the same way.
A) -0.258

Q) Let us now turn to `COc1ccc(NC(=O)O[C@H]2[C@H](OC(=O)Nc3ccccc3)[C@H](OC(=O)Nc3ccccc3)[C@@H](OC)O[C@@H]2CO)cc1`
A) -1.29

---

Readings of z-score for the listed compounds
# protocol-notes: MM1S myeloma cell viability, profiling panel, resazurin fluorescence, basal, 24 h, PK04 Diversity Set (AID 1174);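 also: MM1S multiple myeloma cell line; test concentration not given here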
# condition-summary: higher = more signal, called active from +8 up or from −8 down
Just the number, please, no unit after it.

Example entries begin here.
1) CCOC(=O)C1=C[C@@H](c2ccccc2)N(S(=O)(=O)c2ccc(C)cc2)[C@H]1c1ccccc1Cl
-0.898
2) CC(C)(C)OC(=O)CC[C@]1(C(=O)NCC(O)CO)N=C(c2ccc(OCCCO)cc2)O[C@H]1c1ccccc1 (stereo not given in full)
1.04
3) CN1C(=O)C2C=CC(C(O)COCc3ccccc3)N(N(c3ccccc3)c3ccccc3)C2C1=O (stereo not given)
-0.902
4) NC(=O)N1C(=O)C2C(C1=O)C1C=C(CCCO)C2C(c2cccs2)N1Cc1cccc(OC(F)(F)F)c1 (stereo not given)
-0.637
5) COC(=O)C(CC#Cc1ccc2c(c1)[C@]1(C(=O)N2)[C@H](c2ccccc2OCCO)N2[C@H](c3ccccc3)[C@H](c3ccccc3)OC(=O)[C@H]2[C@@H]1C(=O)NC[C@H](O)c1ccccc1)C(=O)OC
-6.75
6) CCOC(=O)c1ccc(NC(=O)O[C@H]2[C@H](OC(=O)Nc3ccc4c(c3)OCO4)[C@H](OC(=O)Nc3ccc4c(c3)OCO4)[C@@H](OC)O[C@@H]2CO)cc1
-1.55
7) COc1ccc(CCNC(=O)[C@@]2(Sc3ccc(C)cc3)CC(=O)N(C3Cc4ccccc4C3)[C@@H]2c2ccc(CO)cc2)cc1
-1.13
8) NCCCCCCNC(=O)[C@@H]1C[C@@H]2C(=O)N[C@@H](CCCCN)C(=O)N2[C@@H]1c1cccc(OCCO)c1
0.193

Q) # input compound: `COCCOC(=O)N1C(=O)[C@@]2(c3ccccc31)[C@H](C(=O)N1CCN(c3ncccn3)CC1)[C@H]1C(=O)O[C@H](c3ccccc3)[C@H](c3ccccc3)N1[C@@H]2c1ccc(O)cc1` ; wanted: its z-score
A) 0.439

Q) Cool, now `CCCNC(=O)[C@@]1(c2ccc([N+](=O)[O-])cc2)CC(=O)N(C2CCCCC2)[C@@H]1c1ccc(CO)cc1`
A) 0.411

---

# protocol-notes: FRG1 promoter luciferase signal modulators, primary screen, FRG1 inhibition for FSHD, cell-based, C2C12 myotubes, firefly/Renilla luciferase, luminescence (AID 1084)
# condition-summary: higher = more signal, called active from +8 up or from −8 down
Active and inactive are the calls of the source.
assay-readout: z-score

Known z-score results, listed for orientation:
1. CN(C)CCCNC(=O)[C@@]1(C)c2ccccc2C(=O)N(Cc2ccccc2)[C@H]1c1ccc(CO)cc1
-0.839 (inactive)
2. [N-]=[N+]=NCc1ccccc1C[C@@]1(C(=O)NCc2ccccc2)N=C(c2ccc(OCCCO)cc2)O[C@@H]1c1ccccc1N=[N+]=[N-]
-1.81 (inactive)
3. O=C1OCC=C[C@H]2OC34C=CCN(c5ccc(Cl)cc5)C(=O)[C@H]3N(CCO)C(=O)[C@@H]4[C@@H]12 (stereo partly drawn)
0.782 (inactive)
4. Cc1ccc(S[C@]2(C(=O)O)CC(=O)N(Cc3cc(C(F)(F)F)cc(C(F)(F)F)c3)[C@@H]2c2ccc(CO)cc2)cc1
0.0661 (inactive)
5. CN1C(=O)C2C=CC(C(O)C#Cc3ccccc3)N(Nc3ccccc3)C2C1=O (stereo not drawn)
2.29 (inactive)
6. Cc1ccccc1C(O)C1C=CC2C(=O)N(C)C(=O)C2N1N(c1ccccc1)c1ccccc1 (stereo not drawn)
-0.0079 (inactive)
7. CO[C@H]1O[C@H](CO)[C@@H](OC(=O)Nc2ccc3c(c2)OCO3)[C@H](OC(=O)c2cc3ccccc3[nH]2)[C@H]1OC(=O)c1cc2ccccc2[nH]1
1.13 (inactive)

Q) May I ask what z-score has been recorded for `COCCOC(=O)N1C(=O)[C@@]2(c3cc(C#CC4=CCCCC4)ccc31)[C@H](c1ccccc1OCCO)N1[C@H](c3ccccc3)[C@H](c3ccccc3)OC(=O)[C@H]1[C@@H]2C(=O)N1CCCCCCC1` ?
A) -0.639 (inactive)
